Cited source for all entries: patent US11596639B2

# Test system: H929 human cancer cell lines
# test: Cellular viability / proliferation (Cell TiterGlo, 72 h)
# Format: cell-based
# experimentalSetup: Homo sapiens, NCI-H929, 72 h, read-out: GI50 on cellular proliferation of H929 human cancer cell lines, H929 cells, 72 h, Cell TiterGlo, 10% FBS
Label scheme for GI50: group 1: < 800 nM; group 2: ≥ 800 nM and < 2000 nM; group 3: ≥ 2000 nM

// query Which bin, given its GI50, does Cc1cc(OCCCc2c3n(c4c(-c5c(C)nn(C)c5C)c(Cl)ccc24)[C@H](C)CN(c2cccc4cc(C(=O)O)n(CCN(C)C)c24)C3=O)cc(C)c1Cl occupy?
// result group 2

// query Which bin, given its GI50, does CNS(=O)(=O)c1ccc2c(c1)c(N1C[C@@H](C)n3c(c(CCCOc4cc(C)c(Cl)c(C)c4)c4ccc(Cl)c(-c5c(C)nn(C)c5C)c43)C1=O)cn2C occupy?
// result group 3

// query Which bin, given its GI50, does Cc1cc(OCCCc2c3n(c4c(-c5c(C)nn(C)c5C)c(Cl)ccc24)[C@H](C)CN(c2cn(C)c4ccc(-n5ncnn5)cc24)C3=O)cc(C)c1Cl occupy?
// result group 2

// query Which bin, given its GI50, does Cc1cc(OCCCc2c3n(c4c(-c5c(C)nn(C)c5C)c(Cl)ccc24)[C@H](C)CN(c2ccnc4ccc(-c5nnn(C)n5)cc24)C3=O)cc(C)c1Cl occupy?
// result group 2

// query Which bin, given its GI50, does Cc1cc(OCCCc2c3n(c4c(-c5c(C)n[nH]c5C)c(Cl)ccc24)[C@H](C)CN(c2cn(C)c4ccc(C(=O)O)cc24)C3=O)cc(C)c1Cl occupy?
// result group 1

Now examine the next entry.
// query Which bin, given its GI50, does Cc1cc(OCCCc2c3n(c4c(-c5c(C)nn(C)c5C)c(Cl)ccc24)[C@H](C)CN(c2cn(CCN4CCCCC4)c4ccc(C(=O)O)cc24)C3=O)cc(C)c1Cl occupy?
// result group 2

* * *

# target: Mcl-1 (Homo sapiens (Human))
# Sequence (Q07820 172-327): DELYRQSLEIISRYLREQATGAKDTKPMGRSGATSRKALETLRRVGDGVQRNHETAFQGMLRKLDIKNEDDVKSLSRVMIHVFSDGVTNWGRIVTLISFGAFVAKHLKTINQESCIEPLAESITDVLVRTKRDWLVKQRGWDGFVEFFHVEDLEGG
# test: TR-FRET binding assay, FITC-Bak peptide and MBP-tagged Mcl-1
# experimentalSetup: read-out: Ki for Inhibition of Mcl-1 by TR-FRET assay
observedProperty: Ki (nM)
Give a bare numeral; the unit nM is implied.

// query Which Ki reading was recorded for the compound Cc1cc(OCCCc2c3n(c4c(-c5c(C)nn(C)c5C)c(Cl)ccc24)[C@H](C)CN(c2cc(CN4CCOCC4)cc4c(C(=O)O)cn(C)c24)C3=O)cc(C)c1Cl ?
// result 0.34

Next compound, Ki to be filled in.
// query Which Ki reading was recorded for the compound Cc1cc(OCCCc2c3n(c4c(-c5c(C)nn(C)c5C)c(Cl)ccc24)[C@H](C)CN(c2cc(OCc4cccnc4)cc4cc(C(=O)O)n(C)c24)C3=O)cc(C)c1Cl ?
// result 0.23

* * *

// reported pKi for each item listed
# target: Mcl-1 (Homo sapiens (Human))
# test: Fluorescence polarization anisotropy (FPA) competition assay, FITC-Bak or FITC-Bim BH3 peptide
# Type: binding
# experimentalSetup: read-out: Ki for Inhibition of Mcl-1 by FPA assay
Note on units: pKi is unitless, being -log10 of a concentration expressed in mol/L.

Look over these answered cases.
// query Which pKi reading was recorded for the compound Cc1cc(OCCCc2c3n(c4c(-c5c(C)nn(CC6CCN(C)CC6)c5C)c(Cl)ccc24)[C@H](C)CN(c2cccc4c(C(=O)O)cn(C)c24)C3=O)cc(C)c1Cl ?
// result 8.92

// query Which pKi reading was recorded for the compound Cc1cc(OCCCc2c3n(c4c(-c5c(C)nn(C)c5C)c(Cl)ccc24)[C@H](C)CN(c2cn(C)c4ccc(S(=O)(=O)N5CCN(C)CC5)cc24)C3=O)cc(C)c1Cl ?
// result 8.32

// query Which pKi reading was recorded for the compound Cc1cc(OCCCc2c3n(c4c(-c5c(C)nn(C)c5C)c(Cl)ccc24)[C@H](C)CN(c2cn(C)c4ccc(C(=O)NO)cc24)C3=O)cc(C)c1Cl ?
// result 8.70

Next compound, pKi to be filled in.
// query Which pKi reading was recorded for the compound Cc1cc(OCCCc2c3n(c4c(-c5c(C)nc(CN6CCCC6)nc5C)c(Cl)ccc24)[C@H](C)CN(c2cn(C)c4ccc(C(=O)O)cc24)C3=O)cc(C)c1Cl ?
// result 8.64
